Details: 298.2 K; 101.33 kPa; Liquid; Kyoto 210 Density Meter
Assay Endpoint: mass density (kg/m3)
Give bare numbers, in kg/m3.

CCCCCCO    815.21
CCCCCCCCCCO    826.86

Parameter requested: mass density. Apply to each item below.
1. CCCCCCCO
2. CCCCCCCCO

Given back:
[818.83, 825.1]

Asked: Given the entry CCC(C)O (stereo not given) , report its measured mass density.
Given back: 802.34

---

Give refractive index for every item shown.
Test: refractive index (Na D-line) (dimensionless)
Conditions: 298.2 K; 101.33 kPa; Liquid; Standard Abbe refractometry
Answers are plain numbers.

CCCCCCCCCCO    1.4344

List refractive index for every entry below, keeping the order given.
1. CCC(C)O (stereo unspecified)
2. CCCCCCCCO
3. CCCCCCCO
4. O
5. CCCCCCO

Given back:
1.3949
1.427
1.4224
1.3324
1.4155

Provenance of the data: the NIST ThermoML archive (doi:10.1016/j.jct.2012.01.003)
